# Test system: CAKI-1
# test.method.notes: NCI tumour cell line growth inhibition, 48 h
Activity calls are given as the source filed them. No stated cut-off is given here; in the data, active = GI50 up to about 1.1 µM and inactive = higher.
Pick one and only one: y (active), n (inactive)

Please review the entries below; each comes with its answer.
>>> label_value("O=[N+]([O-])c1ccc2c(c1)Sc1ccccc1N2")
"n"
>>> label_value("C=C1CC2OC2(C(=O)O[C@H]2CCC3[C@@H]4CCC5=CC(=O)CC[C@]5(C)C4CC[C@@]32C)C1=O (stereo not given in full)")
"n"
>>> label_value("C/C(=N\\Nc1nc2ccccc2o1)c1cc(C)ncn1")
"y"

Could you please tell me the result logged for COc1c(C)c2c(c(C)c1Cl)Oc1c(C=O)c(O)c(Cl)c(C)c1C(=O)O2 in this assay?
n

How was CCOC(=O)c1c(NC(=O)c2cccs2)sc2c1CCCC2 classified in this test?
n

The origin of these recorded values is ChEMBL document CHEMBL1201862.
